# tgt: PstS1a (Parasynechococcus marenigrum, UniProt Q7U7G6)
# Sequence (Q7U7G6 25-324): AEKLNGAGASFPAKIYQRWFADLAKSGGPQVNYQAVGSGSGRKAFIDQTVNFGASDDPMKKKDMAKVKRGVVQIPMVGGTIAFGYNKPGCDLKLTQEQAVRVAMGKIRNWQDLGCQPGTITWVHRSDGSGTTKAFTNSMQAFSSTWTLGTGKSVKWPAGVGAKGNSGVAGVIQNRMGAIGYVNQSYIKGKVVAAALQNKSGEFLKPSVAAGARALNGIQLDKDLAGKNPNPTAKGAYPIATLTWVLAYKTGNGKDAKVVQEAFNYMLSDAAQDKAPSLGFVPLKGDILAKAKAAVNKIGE
measuredEndpoint: Kd (µM)
Unit µM implied. Number only.

Query string: Query: Kd; subject: O=P(O)(O)O [phosphate]
Result string: 3.3

----------
# tgt: PstS2 (Parasynechococcus marenigrum, UniProt Q7U3C5)
# Sequence (Q7U3C5 24-336): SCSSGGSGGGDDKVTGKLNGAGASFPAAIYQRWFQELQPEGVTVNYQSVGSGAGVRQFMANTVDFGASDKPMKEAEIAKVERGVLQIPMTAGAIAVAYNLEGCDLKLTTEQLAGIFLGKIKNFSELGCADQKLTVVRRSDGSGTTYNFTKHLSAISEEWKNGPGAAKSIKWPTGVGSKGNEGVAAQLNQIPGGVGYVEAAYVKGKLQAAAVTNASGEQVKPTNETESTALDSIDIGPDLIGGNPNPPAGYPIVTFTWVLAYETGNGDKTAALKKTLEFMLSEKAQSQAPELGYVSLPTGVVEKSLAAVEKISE
measuredEndpoint: pKd
The read-out pKd is expressed as -log10 of concentration in moles per litre.

Query string: Query: pKd; subject: O=P(O)(O)O [phosphate]
Result string: 5.37
